Just for reference, patent US20230391845A1 is where these values come from.

Target under test: T1, human glucose-dependent insulinotropic polypeptide receptor (human, UniProt P48546 22-466)
T1 sequence (looked up): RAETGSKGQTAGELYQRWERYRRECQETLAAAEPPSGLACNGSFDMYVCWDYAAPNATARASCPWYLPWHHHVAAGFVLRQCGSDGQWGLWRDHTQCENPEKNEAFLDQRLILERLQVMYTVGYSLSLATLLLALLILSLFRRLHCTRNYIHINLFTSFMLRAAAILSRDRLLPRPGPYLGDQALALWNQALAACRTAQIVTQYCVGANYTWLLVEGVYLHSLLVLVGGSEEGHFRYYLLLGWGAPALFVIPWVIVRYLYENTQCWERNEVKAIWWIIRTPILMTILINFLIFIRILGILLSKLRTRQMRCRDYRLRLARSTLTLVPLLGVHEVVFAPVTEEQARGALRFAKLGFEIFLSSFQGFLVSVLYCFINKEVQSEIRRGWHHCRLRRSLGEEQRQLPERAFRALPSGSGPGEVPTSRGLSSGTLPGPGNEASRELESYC
Method notes: cell-based or functional assay
Where no end group is shown, it is not given here. [ ]: non-standard residue; d: D form. Aib = CC(C)(N)C(=O)O
Measure name: hGIPR CRE Luc EC50 (pM)
Enter your answer as a number in pM; do not include the unit.

Y[Aib]QGTFTSDYSIYLEKQAA[Aib]EFVQWLLEGGPSSGAPPPS-NH2 (not fully specified (residue 16)) [Compound No. 17] | 7

Suppose we examine the binder H[Aib]HGTFTSDYSKYLEKQAA[Aib]EFVQWLLEGGPSSGAPPPS-NH2 (not fully specified (residue 16); printed as H-Aib-HGTFTSDYSKYLE-K[(2S)-2-amino-6-[[(2S)-2-amino-6-[[(4S)-4-carboxy-4-(19-carboxynonadecanoylamino)butanoyl]amino]hexanoyl]amino]hexanoyl]-QAA-Aib-EFVQWLLEGGPSSGAPPPS-NH2) [Compound No. 36] ; what hGIPR CRE Luc EC50 (pM) value has been reported?
9.3
